# Tested on: rodent lifetime carcinogenesis bioassay, tumor incidence TD50
# measurementNotes: carcinogenic potency in animals, long-term in vivo studies, CPDB compilation (AID 1745844)
# experimentalSetup: rat; strain Charles River CD (Sprague-Dawley); both sexes; in feed; site: liver; lesion: angiosarcoma; dosed 123 weeks; study length 123 weeks
property: TD50 (mg/kg/day)
Write the number in mg/kg/day without appending the unit.

Task: Which TD50 is reported with rodent lifetime carcinogenesis bioassay, tumor incidence TD50 for this entry: O=NO ?
Output: 5840

###

# Test system: rodent lifetime carcinogenesis bioassay, tumor incidence TD50
# measurementNotes: carcinogenic potency in animals, long-term in vivo studies, CPDB compilation (AID 1745844)
# experimentalSetup: mouse; strain B6C3F1; males; in feed; site: lung; lesion: adenoma; dosed 79 weeks; study length 83 weeks
Activity calls are given as the source filed them. The rule behind the calls is not given here.
property: TD50

Task: Please look up its TD50: COc1cc(CNC(=O)CCCC/C=C/C(C)C)ccc1O
Output: 16100 mg/kg/day (inactive)
